// data source = patent US9586947B2

Assay: Pharmacokinetics assay in rats, intragastric administration
Type: in vivo
Conditions: Sprague-Dawley, rat, in vivo, po, male SD rats, 5 mg/kg, read-out: Mean Residence Time MRT
PROPERTY: MRT (h)
Dear colleague, please return just the value in h, with no unit written.

Some solved cases for reference:
Report MRT for CC1(C)C(=O)N(c2ccc(C#N)c(C(F)(F)F)c2)C(=S)N1c1ccc(OCC2(N)CC2)c(F)c1 please.
17.8

Again, but for CC1(C)C(=O)N(c2ccc(C#N)c(C(F)(F)F)c2)C(=S)N1c1ccc(O[C@H]2COC[C@@H]2O)c(F)c1
18.3

Again, but for CC1(C)C(=O)N(c2ccc(C#N)c(C(F)(F)F)c2)C(=S)N1c1ccc(OCCO)cc1
10.8

Shift focus to the following entry.
Report MRT for CC1(C)C(=O)N(c2ccc(C#N)c(C(F)(F)F)c2)C(=S)N1c1ccc(OCC(O)CO)c(F)c1 (stereo not shown) please.
13.1
